target: T1, Recombinant DENV-2 sE (1-396) from strain 16681-PDK53 with C-terminal AviTag and poly-histidine tags (Dengue virus serotype 2 strain …, UniProt P29991 281-676, biotinylated on the AviTag for BLI); assay: ELISA on DENV-2 E
T1 construct: Produced in Expi293F cells; biotinylated for BLI; also called DENV-2 E
measured endpoint: binding result

INSERT INTO results (binder, recorded_value) VALUES
  ('MZ1 (antibody, V domains shown) VH: QVQLQESGPGLVKSSETLSLSCTVSGASISNFYWSWVRQPPGKGLEWMGSIYYTGTITYNPSLKSRLTMSVDTSKNQFSLKLNSVTAADTAVYSCAGLDRFNWNDEGDCWGQGTLVTVFS VL: QSVLTQPPSASGTPGQRVTISCSGSRSNLGRNTVNWYQQLPGVAPKLLIYSNNRRPSGVPDRFSGSKSDTSASLAISGLQSEDEADYFCAAWDDSLNGLYVFGTGTKVTVLG', 'binds'),
  ('MZ20 (antibody, V domains shown) VH: EVQVVESGGGLVKPGGSLRLSCAASGFTFSHFYMTWIRQAPGKGLESISYIGGTGSPTYYADSVVGRFTISRDNAKNSVYLEMNSLRAEDTAIYYCVRAGGARIENWGQGTLVIVSS VL: DIVMTQSPSSLSASVGDRVTITCQASHDINIYLNWYQQRPGKAPKLLIYDASRLETGVPSRFSGTGSGTDFTFTISNLQPEDFATYFCQHYYTLPRTFGQGTKVDIKR', 'binds'),
  ('MZ54 (antibody, V domains shown) VH: EVQLVESGGGLVKPGGSLRLSCSASGFNFRDFYMGWVRQAPGKGLQWVSHIGDSGGAIYYTDSVEGRFSISRDNAKNSLYLQMNSLRVEDTAIYYCVCAGGGRTDYWGQGTLVTVSS VL: DIVMTQSPSSLSASVGDRVTITCQATQDINIYLNWYQQKPGQAPKLLIYDASRLETGVPSRFSGRGSGTDFTFTISSLQPEDFGTYYCQHYYTVPRTFGQGTKVESRR', 'binds');
